# Tested on: KATO III stomach cancer cell line
# ASSAY COMMENT: cells
# CONDITION PARAMETERS: Homo sapiens, 72 h
# Description: Antiproliferative activity against FGFR2 amplified human KATO III cells measured after 3 days by MTT assay
PARAMETER: IC50 (nM)

COMPOUND	EXPERIMENTAL SYSTEM	PARAMETER	REPORTED MEASUREMENT
C[C@@H](Oc1ccc2[nH]nc(/C=C/c3cnn(CCNC(=O)CCCCNc4cccc5c4C(=O)N(C4CCC(=O)NC4=O)C5=O)c3)c2c1)c1c(Cl)cncc1Cl (stereo partly drawn)	KATO III stomach cancer cell line	IC50	17.5

1: C[C@@H](Oc1ccc2[nH]nc(/C=C/c3cnn(CCNC(=O)CCNc4ccc5c(c4)C(=O)N(C4CCC(=O)NC4=O)C5=O)c3)c2c1)c1c(Cl)cncc1Cl (stereo partly drawn)
2: C[C@@H](Oc1ccc2[nH]nc(/C=C/c3cnn(CCNC(=O)CCCCCNc4ccc5c(c4)C(=O)N(C4CCC(=O)NC4=O)C5=O)c3)c2c1)c1c(Cl)cncc1Cl (stereo partly drawn)
**Q:** Returns: the argument ( 1 or 2 ) having the larger IC50. Lab note: record the label of whichever item you select.
**A:** 1

---

// reported pIC50 per item
# Tested on: KATO III stomach cancer cell line
# ASSAY COMMENT: cells
# CONDITION PARAMETERS: Homo sapiens, 72 h
pIC50: −log10 of the molar value.

Guide cases for pIC50, answers given:
MOLECULE	pIC50
C[C@@H](Oc1ccc2[nH]nc(/C=C/c3cnn(CCNC(=O)/C=C/C(=O)c4ccc(Cl)cc4)c3)c2c1)c1c(Cl)cncc1Cl	< 7.30
Cc1ncsc1-c1ccc(CNC(=O)[C@@H]2C[C@@H](O)CN2C(=O)[C@@H](NC(=O)CCC(=O)NCCn2cc(/C=C/c3n[nH]c4ccc(O[C@H](C)c5c(Cl)cncc5Cl)cc34)cn2)C(C)(C)C)cc1	< 7.30
Cc1ncsc1-c1ccc(CNC(=O)[C@@H]2C[C@@H](O)CN2C(=O)[C@@H](NC(=O)CCCCCC(=O)NCCn2cc(/C=C/c3n[nH]c4ccc(O[C@H](C)c5c(Cl)cncc5Cl)cc34)cn2)C(C)(C)C)cc1	< 7.30
C[C@@H](Oc1ccc2[nH]nc(/C=C/c3cnn(CCNC(=O)CCNc4cccc5c4C(=O)N(C4CCC(=O)NC4=O)C5=O)c3)c2c1)c1c(Cl)cncc1Cl (stereo not given in full)	8.38

Let's switch to this molecule now.
**Q:** Entry under review: Cc1ncsc1-c1ccc(CNC(=O)[C@@H]2C[C@@H](O)CN2C(=O)[C@@H](NC(=O)CCC(=O)NCn2cc(/C=C/c3n[nH]c4ccc(O[C@H](C)c5c(Cl)cncc5Cl)cc34)cn2)C(C)(C)C)cc1 . Reported pIC50?
**A:** < 7.30

These measurements were taken from ChEMBL document CHEMBL5579838.
